Reported half-life values follow for various molecules
assay: Terminal half life in CD1 mouse at 10 mg/kg, po; format: ADME, organism-based; parameters: dose 10 mg/kg, route oral; conditions: in vivo, read-out: beta t1/2 (converted)

[[record]]
compound_string = "Cl.NCc1ccc(Oc2ccc3c(c2)B(O)OC3)c(F)c1"
experimental_value = "2.43 h"


// below: half-life requested for another molecule
Short answer for Cl.NCc1ccc(Oc2ccc3c(c2)B(O)OC3)c(Cl)c1 : half-life was 2.82 h

====

assay: Tmax in CD1 mouse at 10 mg/kg, po; format: ADME, organism-based; design: dose 10 mg/kg, route oral; conditions: in vivo
Test Readout: Tmax (min)
Write the value in min as a bare number.

[[record]]
compound_string = "Cl.NCc1ccc(Oc2ccc3c(c2)B(O)OC3)c(F)c1"
units_text = "min"
experimental_value = 15


Attention now turns to another entry.
Item: Cl.NCc1ccc(Oc2ccc3c(c2)B(O)OC3)c(Cl)c1 | Tmax: 15

====

# Lookup of reported AUC keyed by entry
assay: AUC in CD1 mouse at 10 mg/kg, po; type: ADME, organism-based; design: dose 10 mg/kg, route oral; settings: plasma
Kindly report the value followed by its unit.

[[record]]
compound_string = "Cl.NCc1ccc(Oc2ccc3c(c2)B(O)OC3)c(F)c1"
experimental_value = "533 ng·h/mL"


// moving on: another record for AUC
Record Cl.NCc1ccc(Oc2ccc3c(c2)B(O)OC3)c(Cl)c1 , field AUC: 2660 ng·h/mL

====

experiment: Cmax in CD1 mouse at 10 mg/kg, po; assay type: ADME, organism-based; set-up: dose 10 mg/kg, route oral; details: in vivo
Each item that follows carries a reported Cmax.
Your answer should be a plain number; it is taken to be in ng/mL.

[[record]]
compound_string = "Cl.NCc1ccc(Oc2ccc3c(c2)B(O)OC3)c(F)c1"
test_readout = "Cmax"
experimental_value = 142


Then this compound:
response.value for Cl.NCc1ccc(Oc2ccc3c(c2)B(O)OC3)c(Cl)c1 (field: Cmax) = 1450

====

test system: PBMC; experiment: Antiinflammatory activity in human PBMCs assessed as inhibition of LPS-induced IL6 release at 100 uM incubated for 15 mins prior to LPS challenge measured after 24 hrs by HTRF assay relative to control; format: functional
Test Readout: inhibition at 100 µM

[[record]]
compound = "CN1CCN(Cc2cccc(Oc3ccc4c(c3)B(O)OC4)c2)CC1"
target_system = "PBMC"
experimental_value = "< 40%"

[[record]]
compound = "Cl.NCc1ccc(Oc2ccc3c(c2)B(O)OC3)c(F)c1"
target_system = "PBMC"
experimental_value = "80%"

[[record]]
compound = "C[C@H]1C[C@H]2[C@@H]3CCC4=CC(=O)C=C[C@]4(C)[C@@]3(F)[C@@H](O)C[C@]2(C)[C@@]1(O)C(=O)CCl"
target_system = "PBMC"
experimental_value = "80%"

[[record]]
compound = "Nc1cccc(Oc2ccc3c(c2)B(O)OC3)c1"
target_system = "PBMC"
experimental_value = "< 40%"

[[record]]
compound = "C[S+]([O-])c1ccc(-c2nc(-c3ccc(F)cc3)c(-c3ccncc3)[nH]2)cc1 (stereo unspecified)"
target_system = "PBMC"
experimental_value = "< 40%"


# inhibition at 100 µM (compound: OB1OCc2ccc(Oc3cccc(CN4CCOCC4)c3)cc21 ) is < 40%
